Assay: Accelerated shelf stability of formulated solutions, HPLC
Assay type: physicochemical
Settings: anhydrous isopropanol, 2 weeks
Quantity: BP-766 remaining (%)
Report the value in % with no unit label.

Request: Look at this compound and give its reported BP-766 remaining. CC(O)(CNC(=O)C(F)(F)F)C(=O)Nc1ccc([N+](=O)[O-])c(C(F)(F)F)c1 (stereo not shown) [BP-766]
Result: 99.4

---

Assay: Accelerated shelf stability of formulated solutions, HPLC
Assay type: physicochemical
Details: anhydrous isopropanol, 3 weeks
Quantity: BP-766 remaining
Provide the measurement as a number trailed by its unit.

Request: Look at this compound and give its reported BP-766 remaining. CC(O)(CNC(=O)C(F)(F)F)C(=O)Nc1ccc([N+](=O)[O-])c(C(F)(F)F)c1 (stereo not shown)
Result: 99.3%

---

Test: Accelerated shelf stability of formulated solutions, HPLC
Type: physicochemical
Conditions: anhydrous isopropanol, 5 weeks
Quantity: BP-766 remaining

Request: Look at this compound and give its reported BP-766 remaining. CC(O)(CNC(=O)C(F)(F)F)C(=O)Nc1ccc([N+](=O)[O-])c(C(F)(F)F)c1 (stereo not shown)
Result: 98.9%

---

Assay: Acute oral toxicity in NMRI mice
Conditions: mouse, in vivo, female NMRI mice, probit analysis
Quantity: LD50

Request: Look at this compound and give its reported LD50. CC(O)(CNC(=O)C(F)(F)F)C(=O)Nc1ccc([N+](=O)[O-])c(C(F)(F)F)c1 (stereo not shown)
Result: 2230 mg/kg

---

Test: Systemic toxicity by intraperitoneal injections in mice
Assay type: in vivo, mouse
Details: mouse, in vivo, ip, i.p. injections, read-out: murine maximum tolerated dose (MTD)
Quantity: MTD at 7 days

Request: Look at this compound and give its reported MTD at 7 days. CC(O)(CNC(=O)C(F)(F)F)C(=O)Nc1ccc([N+](=O)[O-])c(C(F)(F)F)c1 (stereo not shown)
Result: ~300 mg/kg

---

Test: Acute oral toxicity in NMRI mice
Details: mouse, in vivo, male NMRI mice, probit analysis
Quantity: LD50

Request: Look at this molecule and give its reported LD50. CC(O)(CNC(=O)C(F)(F)F)C(=O)Nc1ccc([N+](=O)[O-])c(C(F)(F)F)c1 (stereo not shown)
Result: 2870 mg/kg

---

Assay: Accelerated shelf stability of formulated solutions, HPLC
Type: physicochemical
Details: anhydrous isopropanol, 4 weeks
Description: (Table 3). […] (Connors, Kenneth A; Amidon, Gordon L.; Stella, Valentino J. Chemical Stability of Pharmaceuticals—A Handbook for Pharmacists. Second Edition, 1986, John Wiley & Sons)
Quantity: BP-766 remaining (%)
Report the value in % with no unit label.

Request: Look at this molecule and give its reported BP-766 remaining. CC(O)(CNC(=O)C(F)(F)F)C(=O)Nc1ccc([N+](=O)[O-])c(C(F)(F)F)c1 (stereo not shown)
Result: 99.2

---

Assay: Accelerated shelf stability of formulated solutions, HPLC
Format: physicochemical
Conditions: anhydrous isopropanol, 0 weeks
Quantity: BP-766 remaining (%)
Report the value in % with no unit label.

Request: Look at this compound and give its reported BP-766 remaining. CC(O)(CNC(=O)C(F)(F)F)C(=O)Nc1ccc([N+](=O)[O-])c(C(F)(F)F)c1 (stereo not shown)
Result: 100
